Measurement description: in vivo
Condition description: male, beagle, dog, po, 2 mg/kg, Cmax (peak concentration)

- Compound string: "O=C(O)c1ccc(-c2ccc(/C=C3\\SC(=S)N(Cc4ccccc4)C3=O)o2)cc1"
  Cmax [ng/mL]: 685

* * *

Measurement description: physchem

- Compound: "O=C(O)c1ccc(-c2ccc(/C=C3\\SC(=S)N(Cc4ccccc4)C3=O)o2)cc1 [LA1]"
  Unit text: "µg/mL"
  solubility: 0.78

* * *

Measurement description: in vivo
Condition description: male, beagle, dog, po, 2 mg/kg, Half life

- Compound string: "O=C(O)c1ccc(-c2ccc(/C=C3\\SC(=S)N(Cc4ccccc4)C3=O)o2)cc1"
  half-life: "2.11 h"

* * *

Condition description: male, Sprague-Dawley, rat, in vivo, iv, 1 mg/kg
Where a name gives a salt, the structure may show the parent alone.
Overview of recorded MRT for various compounds

- Compound: "O=C(O)c1ccc(-c2ccc(/C=C3\\SC(=S)N(Cc4ccccc4)C3=O)o2)cc1 [LA1]"
  MRT (h): 3.38
- Compound: "O=C(O)c1ccc(-c2ccc(/C=C3\\SC(=S)N(Cc4ccccc4)C3=O)o2)cc1 [LA1 meglumine salt]"
  MRT (h): 0.91
- Compound: "O=C(O)c1ccc(-c2ccc(/C=C3\\SC(=S)N(Cc4ccccc4)C3=O)o2)cc1 [LA1 (micronized)]"
  MRT (h): 1.47
- Compound: "O=C(O)c1ccc(-c2ccc(/C=C3\\SC(=S)N(Cc4ccccc4)C3=O)o2)cc1 [LA1 choline salt]"
  MRT (h): 0.72

* * *

Measurement description: in vivo
Condition description: male, beagle, dog, po, 5 mg/kg, Plasma concentration
Counter-ions that a name gives are not always drawn.

- Molecule: "O=C(O)c1ccc(-c2ccc(/C=C3\\SC(=S)N(Cc4ccccc4)C3=O)o2)cc1 [LA1 choline salt]"
  concentration at 8 h: "0.107 µg/mL"

* * *

Measurement description: in vivo
Condition description: male, beagle, dog, iv, 0.5 mg/kg, Mean conc.
Structures can show the parent of a compound that is named as a salt.

- Compound: "O=C(O)c1ccc(-c2ccc(/C=C3\\SC(=S)N(Cc4ccccc4)C3=O)o2)cc1 [LA1 choline salt]"
  concentration at 3 h [ng/mL]: 421

* * *

Measurement description: in vivo
Condition description: male, beagle, dog, iv, 0.5 mg/kg
Counter-ions that a name gives are not always drawn.
Endpoint label: AUC(0-inf) (ng·h/mL)

- Molecule: "O=C(O)c1ccc(-c2ccc(/C=C3\\SC(=S)N(Cc4ccccc4)C3=O)o2)cc1 [LA1 choline salt]"
  Assay value: 1350

* * *

Measurement description: Solubility estimation by aliquot addition and temperature cycling
Assay type: physicochemical
Condition description: organic solvent or mixture, thermodynamic from solid; 20° C.; THF:Acetone (1:1); read-out: Approx. solubility

- Compound: "O=C(O)c1ccc(-c2ccc(/C=C3\\SC(=S)N(Cc4ccccc4)C3=O)o2)cc1 [LA1]"
  solubility: "< 10 mg/mL"

* * *

Measurement description: in vivo
Condition description: male, beagle, dog, iv, 0.5 mg/kg, Co/Cmax
Method: The PO (2 mg/kg) dose solution of micronized LA1 was prepared in 0.1% Tween-80 0.5% (w/v) and methyl cellulose in water. The objective of the study was to investigate the preclinical pharmacokinetic profile of LA1 (micronized powder) in Beagle dog. […]

- Compound string: "O=C(O)c1ccc(-c2ccc(/C=C3\\SC(=S)N(Cc4ccccc4)C3=O)o2)cc1"
  Cmax / ng/mL: 2040
